# PROCEDURE_DETAILS: mitochondrial membrane potential change in A549 cells, profiling panel, cell-based, JC-1 fluorescence, basal, 24 h, 100 nL (AID 1138);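 also: A549 lung adenocarcinoma cells under basal conditions with no added stimulus; test concentration not given here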
# CONDITION_LABEL: higher = more signal

- MOLECULE: "CCN(CC)c1ccc(N2CC=CC34O[C@@H]5/C=C\\CCC(C)OC(=O)C5[C@H]3C(=O)N(C(CO)C(C)C)[C@@H]4C2=O)cc1 (stereo partly drawn)"
  z-score: 0.93
- MOLECULE: "O=C1NCC(=O)N2[C@@H]1C[C@@H](C(=O)O)[C@H]2c1cccc(OCCO)c1"
  z-score: 0.221
- MOLECULE: "C=C/C=C/[C@H]1C(=C)CN([C@@H](Cc2ccccc2)C(=O)OC)[C@@H]1[C@H](O)Cc1ccccc1"
  z-score: 0.0936
- MOLECULE: "C=C(CCCC)/C(=C/C[C@@H](OC(C)=O)c1ccccc1OCCO)c1cnc2ccccc2c1"
  z-score: 0.222
- MOLECULE: "CC1CC/C=C\\[C@H]2OC34C=CCN(Cn5nnc6ccccc65)C(=O)[C@H]3N(C(CO)C(C)C)C(=O)[C@@H]4C2C(=O)O1 (stereo partly drawn)"
  z-score: -0.408
- MOLECULE: "COc1ccc(C(O)C2C=CC3C(=O)N(C)C(=O)C3N2N2CCCCC2)c2ccccc12 (stereo not drawn)"
  z-score: -0.364
- MOLECULE: "COC(=O)C=C(CC(O)c1cccc(Cl)c1)OC (stereo not drawn)"
  z-score: -0.252
- MOLECULE: "COc1ccc(C(=O)Nc2ccc(CN3C(=O)[C@@]4(O[C@@H](CCO)[C@H]([Si](C)(C)c5ccc(OC)cc5)[C@H]4C)c4ccccc43)cc2)cc1"
  z-score: -1.49

====

# TESTED_TARGET: Dihydroorotate dehydrogenase (quinone), mitochondrial (Plasmodium falciparum (isolate 3D7)) (UniProt Q08210)
# Sequence (Q08210 whole entry, looked up): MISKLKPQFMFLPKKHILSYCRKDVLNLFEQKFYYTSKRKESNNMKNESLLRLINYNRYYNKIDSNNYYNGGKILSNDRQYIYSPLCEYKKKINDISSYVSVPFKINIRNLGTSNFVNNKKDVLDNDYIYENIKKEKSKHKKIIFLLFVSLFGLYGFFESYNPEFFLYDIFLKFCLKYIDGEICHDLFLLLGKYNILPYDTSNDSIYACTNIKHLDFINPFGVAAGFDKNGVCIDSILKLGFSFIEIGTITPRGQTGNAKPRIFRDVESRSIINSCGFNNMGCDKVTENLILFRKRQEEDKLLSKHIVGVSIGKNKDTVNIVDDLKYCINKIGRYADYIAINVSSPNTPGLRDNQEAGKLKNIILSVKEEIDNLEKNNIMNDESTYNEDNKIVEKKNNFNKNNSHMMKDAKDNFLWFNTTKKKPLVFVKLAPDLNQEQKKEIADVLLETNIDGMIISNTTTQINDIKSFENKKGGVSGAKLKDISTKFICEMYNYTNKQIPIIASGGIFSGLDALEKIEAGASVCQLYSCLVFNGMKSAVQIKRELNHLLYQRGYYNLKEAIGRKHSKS
# PROCEDURE_DETAILS: PfDHODH enzyme inhibitors, primary screen, biochemical, C-terminal His tag, absorbance 600 nm (AID 1175);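 also: recombinant parasite enzyme with a five histidine tag at its C terminus; test concentration not given here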
# CONDITION_LABEL: DCIP absorbance 600 nm, higher = more signal, called active from +8 up or from −8 down
QUANTITY: composite z-score

- MOLECULE: "COCC(=C=CC[C@@H](O)c1ccccc1OCCO)C[C@@H](O)c1cc(Cl)cc(Cl)c1O"
  OBSERVED: -1.31
- MOLECULE: "COc1ccc(CCNC(=O)[C@@H]2c3ccccc3C(=O)N(C3Cc4ccccc4C3)[C@H]2c2ccc(CO)cc2)cc1"
  OBSERVED: 0.441
- MOLECULE: "Cc1ccc(S[C@]2(C(=O)NCCN3CCOCC3)CC(=O)N(Cc3ccccc3Cl)[C@@H]2c2ccc(CO)cc2)cc1"
  OBSERVED: -0.245
- MOLECULE: "[N-]=[N+]=NCc1ccccc1[C@@H]1OC(c2ccc(OCCCO)cc2)=N[C@]1(CCS(=O)(=O)c1ccccc1)C(=O)NCCN1CCOCC1"
  OBSERVED: 0.328
- MOLECULE: "COc1ccc(C(O)C2C=CC3C(=O)N(C)C(=O)C3N2N2CCCCC2)c2ccccc12 (stereo not drawn)"
  OBSERVED: 0.238
- MOLECULE: "O=C(NCc1ccc(F)cc1)[C@H]1C[C@H]2C(=O)N[C@@H](Cc3ccccc3)C(=O)N2[C@H]1c1ccc(O)cc1"
  OBSERVED: -0.0513
- MOLECULE: "COc1ccc(C(O)C2C=CC3C(=O)NC(=O)C3N2Nc2ccccn2)cc1 (stereo not drawn)"
  OBSERVED: 0.91
- MOLECULE: "CCOC(=O)[C@H]1C/C=C/C[C@H](C(=O)OCC)C(=O)O[C@H]2[C@@H](OC)O[C@H](CO)[C@@H](OC(=O)Nc3cccc(F)c3)[C@@H]2OC1=O"
  OBSERVED: -0.0103
